system: Estrogen receptor (Homo sapiens) (UniProt P03372)
Sequence (P03372 whole entry, looked up): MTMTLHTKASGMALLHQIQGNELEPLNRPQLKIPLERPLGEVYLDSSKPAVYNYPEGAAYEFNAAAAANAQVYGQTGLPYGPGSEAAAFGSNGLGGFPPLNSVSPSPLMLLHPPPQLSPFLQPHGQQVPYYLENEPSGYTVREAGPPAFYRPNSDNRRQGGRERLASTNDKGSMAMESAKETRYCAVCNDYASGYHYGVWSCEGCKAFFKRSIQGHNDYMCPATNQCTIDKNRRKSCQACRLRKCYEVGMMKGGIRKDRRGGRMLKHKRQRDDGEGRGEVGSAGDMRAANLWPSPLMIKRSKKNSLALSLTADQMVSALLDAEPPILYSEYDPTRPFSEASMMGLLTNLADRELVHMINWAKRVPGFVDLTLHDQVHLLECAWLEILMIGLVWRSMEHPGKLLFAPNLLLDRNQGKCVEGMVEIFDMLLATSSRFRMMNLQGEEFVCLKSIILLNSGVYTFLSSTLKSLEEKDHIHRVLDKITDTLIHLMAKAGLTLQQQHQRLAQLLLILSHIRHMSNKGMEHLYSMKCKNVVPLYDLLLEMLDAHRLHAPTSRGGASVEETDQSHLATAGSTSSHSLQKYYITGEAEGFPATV
protocol-summary: qHTS assay to identify small molecule antagonists of the estrogen receptor alpha (ER-alpha) signaling pathway (AID 743069)
settings: HEK293 ER-alpha-UAS-bla, beta-lactamase ratio, antagonist mode; series mostly up to 69.4 µM
Active and inactive are the calls of the source. The call rests on the fitted dose curve; in most records, active means well fitted curve in the direction sought with a large enough effect in the signal ratio in the repeat runs (not every such curve was filed as active); inconclusive means weak or mixed curves, or effect the other way; inactive means no such curve, though single readings can be large or run the other way; the % refers to the signal ratio. Positions of bridges follow the written chain, without caps; N, C: chain ends. Non-standard residues stand in square brackets, D forms with d. Residues, ends and D or L forms follow the SMILES beside them. Orn = NCCC[C@H](N)C(=O)O; Mpa = O=C(O)CCS
Respond only with the outcome that fits, drawn from active, inactive

Reference set, count: 4
What is the recorded call for this compound in the test? CC1CC(OC(=O)C(O)c2ccccc2)CC(C)(C)C1 (stereo not given)
inactive

For this compound, state the assay outcome: CCCCCCCCCCCCCCCC(=O)OC[C@@H](COP(=O)([O-])OCC[N+](C)(C)C)OC(=O)CCCCCCCCCCCCCCC
inactive

Tell me the assay call for CCCC(=O)O[C@]1(C(=O)COC(C)=O)CC[C@H]2[C@@H]3C[C@H](F)C4=CC(=O)C=C[C@]4(C)[C@@]3(F)[C@@H](O)C[C@@]21C please.
inactive

Query: recorded result category for CC1(C)[C@@H]2CC[C@@]1(C)[C@H](OC(=O)CSC#N)C2 in this test
inactive

New cases:
Could you kindly confirm the outcome this assay logged for COc1cc([C@@H]2c3cc4c(cc3C(O[C@@H]3O[C@@H]5COC(c6cccs6)O[C@H]5[C@H](O)[C@H]3O)C3COC(=O)[C@@H]32)OCO4)cc(OC)c1O (stereo not given in full) ?
active

// return assay outcome for CC(C)[C@@H](C)/C=C/[C@@H](C)[C@H]1CC[C@H]2/C(=C/C=C3\C[C@@H](O)CC[C@@H]3C)CCC[C@]12C
inactive

Returns: the outcome recorded for CC(=O)N=c1sc(S(N)(=O)=O)nn1C in this assay.
inactive

Please share the test call associated with c1ccc2c(CCC3CCNCC3)c[nH]c2c1 .
inactive

Recorded test call requested for COc1cc(C[C@@H]2NCCc3cc(O)c(O)cc32)cc(OC)c1OC
inactive

What outcome does the record of this test show for CN1C(=O)CN2CCc3ccccc3C2c2cc(Cl)ccc21 (stereo not given) ?
inactive

Hi team, can someone confirm the assay call for CCOc1ccc(C[C@H]2NC(=O)CCSSC[C@@H](C(=O)N3CCC[C@H]3C(=O)N[C@@H](CCCN)C(=O)NCC(N)=O)NC(=O)[C@H](CC(N)=O)NC(=O)[C@H]([C@@H](C)O)NC(=O)[C@H]([C@@H](C)CC)NC2=O)cc1 ([Mpa][dY](Et)ITNCP[Orn]G-NH2; disulfide 1-6) ?
inactive

For CO[C@H]1C=CO[C@@]2(C)Oc3c(C)c(O)c4c(O)c(c(/C=N/N5CCN(C6CCCC6)CC5)c(O)c4c3C2=O)NC(=O)/C(C)=C\C=C[C@H](C)[C@H](O)[C@@H](C)[C@@H](O)[C@@H](C)[C@H](OC(C)=O)[C@@H]1C , which call appears in the assay record?
active

For C=C[C@]1(C)C[C@@H](OC(=O)CSC(C)(C)CNC(=O)[C@H](N)C(C)C)[C@]2(C)[C@H](C)CC[C@]3(CCC(=O)[C@H]32)[C@@H](C)[C@@H]1O , what call appears in the results of this test?
inactive

Which result was noted for this compound in the test: Cc1cccc(C)c1N(CCCc1cccnc1)C(=O)C(C)N (stereo not given)
inactive

Which outcome was assigned to CN1[C@@H]2CCC[C@H]1CC(NC(=O)c1nn(C)c3ccccc13)C2 (stereo not given in full) in this test?
inactive

---

protocol-summary: qHTS assay for identifying genotoxic compounds that show differential cytotoxicity against isogenic chicken DT40 cell lines with known DNA damage response pathways - Rev3 mutant cell line (AID 743014); further: nearly all actives have a fitted effect of over 55% in size
settings: chicken DT40 Rev3-/- viability, CellTiter-Glo, 40 h; series mostly up to 68.4 µM
Inconclusive results are not listed. Activity calls are given as the source filed them. The call rests on the fitted dose curve; in most records, active means well fitted cell-killing curve with a large enough effect in the repeat runs; inconclusive means weak or mixed curves, or effect the other way; inactive means no such curve, though single readings can be large or run the other way.
Response enum: 1 for active, 0 for inactive

Could you please tell me the result logged for COC(=O)CCC(=O)CN in this assay?
0

Lab log entry: Cc1cccc(C)c1N(CCCc1cccnc1)C(=O)C(C)N (stereo not drawn) — outcome as called in the assay?
0

Look up the recorded call for C=C1/C(=C\C=C2/CCC[C@]3(C)[C@@H]([C@H](C)OCCC(C)(C)O)CC[C@@H]23)C[C@@H](O)C[C@@H]1O in this test.
1

Please let me know the test result on file for C=CC1=C(C)C2=CC3=NC(=C(CC(=O)[O-])C4=NC(=C(C)C4=C([O-])[O-])C=c4[n-]c(c(C)c4CC)=CC1=N2)C(CCC(=O)[O-])C3C.[Cu+2].[Na+].[Na+].[Na+] (stereo not drawn) .
1

Kindly provide the recorded test outcome for the following compound: CC1(C)S[C@@H]2[C@H](NC(=O)C(C(=O)Oc3ccc4c(c3)CCC4)c3ccccc3)C(=O)N2[C@H]1C(=O)O (stereo partly drawn)
0

What did this assay record as the result for CC(=O)N[C@@H](CC(=O)N[C@@H](CCC(=O)O)C(=O)O)C(=O)O ?
0

Please state the recorded outcome for this compound: CO[C@@]1(NC(=O)C2SC(=C(C(N)=O)C(=O)O)S2)C(=O)N2C(C(=O)O)=C(CSc3nnnn3C)CS[C@@H]21 (stereo partly drawn)
0

Lab note: next compound to report on.
Write down the call the test reported for this compound. Item: NC(=O)c1ccc[n+]([C@@H]2O[C@H](COP(=O)([O-])OP(=O)(O)OC[C@H]3O[C@@H](n4cnc5c(N)ncnc54)[C@H](O)[C@@H]3O)[C@@H](O)[C@H]2O)c1
0

---

protocol-summary: qHTS assay to test for compound auto fluorescence at 590 nm (red) in HEK293 cells (AID 720679); further: on the % scale 0 is the no-effect control and ±100 the full control effect
settings: red autofluorescence 540/590 nm; series mostly up to 46 µM
Active and inactive are the calls of the source. Calls come from the whole dose curve; as a rule, active = well fitted curve in the direction sought with a large enough effect in the repeat runs; inconclusive = weak or mixed curves; inactive = flat fitted curve, though single readings scatter.
experimental-readout: outcome

Entry CN(C)C(=O)CCSC(SCCC(=O)O)c1cccc(/C=C/c2ccc3ccc(Cl)cc3n2)c1 (stereo not drawn) needs its outcome filled in; supply it.
inactive

Name the recorded outcome of the compound listed here: C=Cc1c(C)c2cc3nc(cc4[nH]c(cc5nc(cc1[nH]2)C(C)=C5CCC(=O)OC)c(CCC(=O)O)c4C)[C@@]1(C)C3=CC=C(C(=O)OC)[C@H]1C(=O)OC
inactive

Give a short answer stating reported outcome for Cc1ccccc1CNc1ncnc2c1ncn2[C@@H]1O[C@H](CO)[C@@H](O)[C@H]1O .
inactive

---

protocol-summary: qHTS assay for identifying genotoxic compounds that show differential cytotoxicity against isogenic chicken DT40 cell lines with known DNA damage response pathways - wild type cell line (AID 743012); further: nearly all actives have a fitted effect of over 60% in size
settings: DT40 wild type chicken cells viability, CellTiter-Glo, 40 h; series mostly up to 68.4 µM
Results filed as inconclusive are left out. Active and inactive are the calls of the source. Calls come from the whole dose curve; as a rule, active = well fitted cell-killing curve with a large enough effect in the repeat runs; inconclusive = weak or mixed curves, or effect the other way; inactive = no such curve, though single readings can be large or run the other way.
Write down the outcome that applies. Available outcomes: active, inactive

Given NC(N)=NCC1COc2ccccc2O1 (configuration not stated) , state the outcome it received in this test.
inactive

What was the test verdict on O=C1CSC2(CCN(CCCN3c4ccccc4Sc4ccc(Cl)cc43)CC2)N1 ?
active

Hi, do you know how C=C1/C(=C\C=C2/CCC[C@]3(C)[C@@H]([C@H](C)OCCC(C)(C)O)CC[C@@H]23)C[C@@H](O)C[C@@H]1O came out in this test?
active

Hi team, can someone confirm the assay call for CC[C@H](C)[C@H]1O[C@]2(CC[C@@H]1C)C[C@@H]1C[C@@H](C/C=C(\C)[C@@H](O[C@H]3C[C@H](OC)[C@@H](O[C@H]4C[C@H](OC)[C@@H](O)[C@H](C)O4)[C@H](C)O3)[C@@H](C)/C=C/C=C3\CO[C@@H]4[C@H](O)C(C)=C[C@@H](C(=O)O1)[C@]34O)O2 ?
active

Others:
For this compound, state the assay outcome: CC(C)=CCC/C(C)=C/C=C/C(C)=C/C=C/C(C)=C/C=C/C=C(C)/C=C/C=C(C)/C=C/C=C(\C)CCC=C(C)C
active

# lookup: test call for O=C(O)CN(CC(=O)O)CC1=CC2C(=CC1=O)Oc1cc(O)c(CN(CC(=O)O)CC(=O)O)cc1C21OC(=O)c2ccccc21 (configuration not stated)
inactive

Please share the test call associated with CC(C)(C)NC[C@H](O)COc1ccccc1C1CCCC1 .
active

---

protocol-summary: qHTS assay to identify small molecule antagonists of the estrogen receptor alpha (ER-alpha) signaling pathway - cell viability counter screen (AID 743074);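 further: HEK293 cells carrying ER-alpha-UAS-bla reporter stimulated with 17beta-estradiol; on the % scale 0 is the no-effect control and ±100 the full control effect; nearly all actives have a fitted effect of over 45% in size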
settings: ERalpha-bla HEK293 viability, CellTiter-Glo luminescence, 18 h; series mostly up to 69.4 µM
Results filed as inconclusive are left out. Calls of active or inactive are those of the source. The call rests on the fitted dose curve.
// one of 1.0 (active), 0.0 (inactive), no free text

Solved cases below.
# fetch the recorded call for O=C(O)c1cc(O)c2c(c1)[O][Bi][O]2 here
0.0

In this assay, the call recorded for CO[C@H]1O[C@@H]2O[C@@]3(C)CC[C@H]4[C@H](C)CC[C@@H]([C@H]1C)[C@@]24OO3 was what?
0.0

// return assay outcome for CC1CCC(NC(=O)N(CCCl)N=O)CC1 (stereo not given)
0.0

Any idea what this test logged for CC(/C=C/C=C(\C)C(=O)O[C@@H]1O[C@H](CO[C@@H]2O[C@H](CO)[C@@H](O)[C@H](O)[C@H]2O)[C@@H](O)[C@H](O)[C@H]1O)=C\C=C\C=C(C)\C=C\C=C(/C)C(=O)O[C@@H]1O[C@H](CO[C@@H]2O[C@H](CO)[C@@H](O)[C@H](O)[C@H]2O)[C@@H](O)[C@H](O)[C@H]1O ?
0.0

What is the recorded call for this compound in the test? c1ccc2cc(C3=NCCN3)ccc2c1
0.0

Further cases:
Short answer needed: outcome of this test for CC(CN1c2ccccc2Sc2cccnc21)N(C)C (stereo not given) ?
0.0

I would be grateful if you could indicate the recorded call for CC(C(=O)O)c1ccc(C2CCCCC2)c2ccccc12 (stereo not given) .
0.0

Answer briefly: the call reported for CC(=O)Oc1c(C)cc(OCC(O)CNC(C)C)c(C)c1C (stereo not given) in this assay.
0.0

Tell me the assay call for CCCCC(C)(O)C/C=C/[C@H]1[C@H](O)CC(=O)[C@@H]1CCCCCCC(=O)OC (stereo not given in full) please.
0.0

Query: recorded result category for C#C[C@]1(O)CC[C@H]2[C@@H]3CCC4=C(CCC(=O)C4)[C@H]3CC[C@@]21C in this test
0.0

Recorded test call requested for C[C@]12CC[C@@H]3c4ccc(OC(=O)c5ccccc5)cc4CC[C@H]3[C@@H]1CC[C@@H]2O
0.0

What was the test verdict on N[C@H](CCC(=O)O)C(=O)O ?
0.0

// param item: CC1=C(/C=C/C(C)=C/C=C/C(C)=C/C(=O)Oc2c(C)c(C)c3c(c2C)CC[C@@](C)(CCC[C@H](C)CCC[C@H](C)CCCC(C)C)O3)C(C)(C)CCC1 ; yields the recorded call
0.0

# fetch the recorded call for C=CCOc1ccc(CC(=O)O)cc1Cl here
0.0

Please share the test call associated with CC(O)CN(C)C (stereo not given) .
0.0

Kindly provide the recorded test outcome for the following compound: CC(=O)Nc1c(I)c(C(=O)N[C@H]2C(O)O[C@H](CO)[C@@H](O)[C@@H]2O)c(I)c(N(C)C(C)=O)c1I (stereo not given in full)
0.0

Returns: the outcome recorded for COc1ccc(CCNC[C@H](O)c2ccc(O)cc2)cc1OC in this assay.
0.0

Assay outcome for CC1CS(=O)(=O)CCN1/N=C/c1ccc([N+](=O)[O-])o1 (stereo not given) : what was it?
0.0

# fetch the recorded call for N#Cc1ccc2c(c1)N(CCCN1CCC(O)CC1)c1ccccc1S2 here
0.0

# outcome recorded in this test, key = CCCc1nc(C(C)(C)O)c(C(=O)OCc2oc(=O)oc2C)n1Cc1ccc(-c2ccccc2-c2nn[nH]n2)cc1
0.0
